Each recorded value in this set is attributed to ChEMBL document CHEMBL1127749.

Organism: Rattus norvegicus
Assay: Ratio of binding affinity at [3H]quinuclidinyl benzilate binding on rat brain stem homogenate to [3H]pirenzepine binding on rat brain homogenate
Entries whose Ratio is below 2 take MET; entries at or above 2 take NOT MET.

Check out these entries, answers already filled in.
> print(dat)
                          molecule  classification
1         C=Cn1nnc(C2=CCCN(C)C2)n1             MET
2        C#CCn1ncc(C2=CCCN(C)C2)n1         NOT MET
3           CN1CCC=C(c2cnn(C)n2)C1         NOT MET
4  C=CCn1ncc(C2CCCNC2)n1 (racemic)         NOT MET
5              Cn1ncc(C2=CCCNC2)n1             MET

Query :: hey, is Ratio for C=CCn1ncc(C2=CCCN(C)C2)n1 lower than 2 or not?
Result :: NOT MET

Query :: I'd appreciate it if you could check whether CN1CCC=C(c2nnn(C)n2)C1 has Ratio smaller than 2.
Result :: MET

Query :: Is it true that Ratio reported for C#CCn1ncc(C2CCCNC2)n1 (single isomer, unassigned; (+)) is less than 2?
Result :: MET

Query :: Ratio under 2? Item: C=CCn1ncc(C2CCCNC2)n1 (stereo in doubt; (-)-15b)
Result :: MET
